test-name: NCI Yeast Anticancer Drug Screen. Data for the rad50 strain (AID 155);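 note: 0% = growth of vehicle-only cultures of the same strain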
test-conditions: S. cerevisiae rad50 strain growth inhibition; at 50.0 µM; active compounds read high
This is part of a sample that, as a whole, favours compounds with a hit. Of some 79,000 tested, about 15% had one in any assay.
observed-property: growth inhibition (%)
Express your answer in %, writing the number without its unit.

Here's what some known entries look like.
COc1ccc2nc3cc(Cl)ccc3c(NCCNCCCNC(=O)c3cc(-c4ccccc4)nc4ccccc34)c2c1 = 96.3
N=C(N)c1ccc2oc3ccc(C(=N)N)cc3c(=O)c2c1 = 57.8
COc1ccccc1C1SC(c2ccccc2)(c2ccccc2)OC1=O (stereo unspecified) = 84.6
O=[N+]([O-])c1ccc(-n2ncc3cccnc32)c([N+](=O)[O-])c1 = 99
C=CCNC(=O)NC1=CSC2=NC(=O)C3(NN12)c1ccccc1-c1ccccc13 = 76.7

Value lookup for growth inhibition; key = CN(C)c1ccc(C2C=C(c3ccccc3)Oc3ccccc32)cc1 (stereo unspecified)
96.7

These data points were gathered from PubChem BioAssay (NCI).
